Target: SARS-CoV spike (S) (SARS-CoV, UniProt P59594 14-1195)
Assay: SPR, VHH over immobilised S
measure_name: kon (M⁻¹ s⁻¹)
The reply should be a number in M⁻¹ s⁻¹, with the unit left off.

INPUT: Output kon of NRCoV2-07 VHH (VHH) VHH: QVQLVQSGGGLVQPGGSLRLSCAASGVTLDYYAIGWFRQAPGKEREAVSCISSNGRRNHYVASVRGRFTISRDNAKSTVYLQMNSLKPEDTAVYYCAAVQDVHGDNYYCTSPNEYNVWGQGTQVTVSS
OUTPUT: 120000

INPUT: Assign kon to the following record: NRCoV2-MRed19 VHH (VHH) VHH: EVQLVESGGGLVQPGGSLRLSCAASTIIFKGQTMGWFRQAPGNERELVATMTTSGSANYADSVKGRFTISRDNEKTVTLQMNSLKPEDTALYYCYMHSVYYGIDYWGKGTQVTVSS
OUTPUT: 249000

INPUT: Consider the binder NRCoV2-MRed20 VHH (VHH) VHH: EVQLVESGGGSVQAGGSLRLSCAASGLSFSSYDMGWFRQAPGKEREFVAAIRESGSGTYYADSVKGRFTISRDNAKNTVYLQVSSLKPEDTAVYTCAAKPPFYGSGTYSTPRAYLYWGQGTQVTVSS . State its measured kon.
OUTPUT: 380000

INPUT: Return the recorded kon value; entry: NRCoV2-SR01 VHH (VHH) VHH: EVQLVQSGGGSVQAGGSLRLSCVASGFTFDNYAIGWFRQAPGKEREGVSCISGNGGVTIYADSVKGRFTISRDNAKNLVYLQMNSLKPEDTAVYYCAATGIRSTWSVYGCSRLAGPYDYWGQGTQVTVSS
OUTPUT: 681000

Value source: patent US20240270826A1
